assay: Inhibition of murine p100/p85 PI3-K (phosphatidylinositol 3-kinase); parameters: species or system Mus musculus
parameterMeasured: IC50 (µM)

# example entries with known answers
CCCCCCCCCCCCCCCCCCOC[C@H](COP(=O)(O)O[C@@H]1[C@H](O)[C@@H](CO)[C@@H](O)[C@H](O)[C@@H]1O)OC = 18.5
CCCCCCCCCCCCCCCCCCOC[C@H](COC(=O)O[C@@H]1[C@H](O)[C@@H](CO)[C@@H](O)[C@H](O)[C@@H]1O)OC = 21.3
CCCCCCCCCCCCCCCCCCOC[C@H](COP(=O)(O)O[C@H]1[C@@H](O)[C@@H](O)[C@H](O)C[C@H]1O)OC = 14.8

A. CCCCCCCCCCCCCCCCCCOC[C@H](COC(=O)O[C@H]1[C@@H](O)[C@@H](O)[C@H](O)C[C@H]1O)OC
B. CCCCCCCCCCCCCCCCCCOC[C@H](COC(=O)O[C@@H]1[C@H](O)[C@H](CO)[C@@H](O)[C@H](O)[C@@H]1O)OC
C. CCCCCCCCCCCCCCCCCCOC[C@H](COP(=O)(O)O[C@@H]1[C@H](O)[C@H](CO)[C@@H](O)[C@H](O)[C@@H]1O)OC
Exercise: In this exercise, place the 3 compounds in ascending sequence of their recorded IC50. Field: ranking. Enter the labels in the order requested.
Key: A, C, B
